# pIC50 annotations
tested_system: Histone deacetylase 3 (Homo sapiens, UniProt O15379)
Sequence (O15379 whole entry): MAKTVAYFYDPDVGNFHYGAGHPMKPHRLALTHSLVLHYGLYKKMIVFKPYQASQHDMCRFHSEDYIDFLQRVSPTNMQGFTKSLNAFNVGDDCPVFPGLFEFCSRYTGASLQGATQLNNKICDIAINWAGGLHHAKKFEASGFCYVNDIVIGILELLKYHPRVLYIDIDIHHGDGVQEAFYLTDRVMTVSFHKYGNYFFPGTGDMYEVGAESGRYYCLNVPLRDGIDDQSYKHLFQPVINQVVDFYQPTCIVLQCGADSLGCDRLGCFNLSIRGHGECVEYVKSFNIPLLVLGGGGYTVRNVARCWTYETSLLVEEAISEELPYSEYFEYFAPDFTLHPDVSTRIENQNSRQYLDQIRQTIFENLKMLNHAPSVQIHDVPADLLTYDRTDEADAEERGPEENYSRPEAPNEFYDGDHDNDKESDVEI
pIC50: −log10 of the molar value.

>  <structure_smiles>
COc1ccc(C(=O)N[C@@H](Cc2c[nH]c3ccccc23)C(=O)NCc2ccc(C(=O)Nc3ccc(F)cc3N)cc2)cc1

>  <tested_system>
Histone deacetylase 3 (Homo sapiens, UniProt O15379)

>  <value_modifier>
=

>  <pIC50>
6.61

$$$$
>  <structure_smiles>
COc1ccc(C(=O)N[C@@H](Cc2c[nH]c3ccccc23)C(=O)Nc2ccc(C(=O)Nc3cc(-c4cccs4)ccc3N)cc2)cc1

>  <tested_system>
Histone deacetylase 3 (Homo sapiens, UniProt O15379)

>  <value_modifier>
=

>  <pIC50>
4.20

$$$$
>  <structure_smiles>
COc1ccc(C(=O)N[C@@H](Cc2c[nH]c3ccccc23)C(=O)NCc2ccc(C(=O)Nc3ccccc3N)cc2)cc1

>  <tested_system>
Histone deacetylase 3 (Homo sapiens, UniProt O15379)

>  <value_modifier>
=

>  <pIC50>
6.86

$$$$
>  <structure_smiles>
COc1ccc(C(=O)N[C@H](CNCc2ccc(C(=O)Nc3ccccc3N)cc2)Cc2c[nH]c3ccccc23)cc1

>  <tested_system>
Histone deacetylase 3 (Homo sapiens, UniProt O15379)

>  <value_modifier>
=

>  <pIC50>
6.65

$$$$
>  <structure_smiles>
COc1ccc(C(=O)N[C@@H](Cc2c[nH]c3ccccc23)C(=O)Nc2ccc(C(=O)Nc3ccc(F)cc3N)cc2)cc1

>  <tested_system>
Histone deacetylase 3 (Homo sapiens, UniProt O15379)

>  <value_modifier>
=

>  <pIC50>
6.78

$$$$
>  <structure_smiles>
COc1ccc(C(=O)N[C@@H](Cc2c[nH]c3ccccc23)C(=O)Nc2ccc(C(=O)Nc3ccccc3N)cc2)cc1

>  <tested_system>
Histone deacetylase 3 (Homo sapiens, UniProt O15379)

>  <value_modifier>
=

>  <pIC50>
6.64

$$$$
>  <structure_smiles>
COc1ccc(C(=O)N[C@H](COc2ccc(CC(=O)Nc3ccccc3N)cc2)Cc2c[nH]c3ccccc23)cc1

>  <tested_system>
Histone deacetylase 3 (Homo sapiens, UniProt O15379)

>  <value_modifier>
<

>  <pIC50>
4.70

$$$$

====

tested_system: Histone deacetylase 8 (Homo sapiens)
Sequence (Q9BY41 whole entry): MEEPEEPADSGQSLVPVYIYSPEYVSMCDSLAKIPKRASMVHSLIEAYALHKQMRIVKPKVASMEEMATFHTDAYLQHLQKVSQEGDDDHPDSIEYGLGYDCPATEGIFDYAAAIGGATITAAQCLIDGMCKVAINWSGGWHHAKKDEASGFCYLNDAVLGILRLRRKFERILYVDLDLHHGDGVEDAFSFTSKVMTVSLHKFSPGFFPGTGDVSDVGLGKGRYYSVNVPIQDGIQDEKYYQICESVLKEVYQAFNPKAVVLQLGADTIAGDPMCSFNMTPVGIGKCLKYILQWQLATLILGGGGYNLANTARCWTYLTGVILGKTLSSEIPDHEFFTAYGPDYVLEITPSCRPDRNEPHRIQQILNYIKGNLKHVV
recorded_metric: IC50

>  <structure_smiles>
COc1ccc(C(=O)N[C@@H](Cc2c[nH]c3ccccc23)C(=O)NCCCCCC(=O)Nc2ccc(F)cc2N)cc1

>  <recorded_metric>
IC50

>  <value_observed>
> 100 µM

$$$$
>  <structure_smiles>
COc1ccc(C(=O)N[C@@H](Cc2c[nH]c3ccccc23)C(=O)NCCCCCC(=O)Nc2cc(-c3cccs3)ccc2N)cc1

>  <recorded_metric>
IC50

>  <value_observed>
> 100 µM

$$$$
